# Tested on: SF-295
# EXPERIMENT DESCRIPTION: NCI tumour cell line growth inhibition, 48 h
Calls of active or inactive are those of the source. Rule as the data show it: active = GI50 up to about 1.1 µM and inactive = higher.
Outcomes: YES for active, NO for inactive

>>> category_label("CN(C)c1nc(N)c(C#N)c(C#N)c1C#N")
"NO"
>>> category_label("CC(=O)NC1=C(C)C(=O)c2c(nc3n2CCC3O)C1=O (centres undefined)")
"NO"
>>> category_label("COc1cc2c(cc1Cc1c(F)cccc1Cl)nc(-c1c(F)cccc1Cl)n2Cc1c(F)cccc1Cl")
"NO"
>>> category_label("COc1ccc2nc3ccccc3c(NCCCCN(CCCl)CCCl)c2c1")
"YES"
>>> category_label("Cc1cc(=O)oc2cc(OCc3nc4ccccc4c(=O)[nH]3)ccc12")
"NO"
>>> category_label("C=CCOC(=O)N1c2ccc(O)cc2[C@@]23O[C@@]24[C@@H]1C#C/C=C\\C#C[C@]3(O)C(=O)C[C@@H]4C")
"NO"
>>> category_label("Nc1nc(N)c2ncn(Cc3ccccc3)c2n1")
"NO"
>>> category_label("O=C1c2ccccc2-c2c1c(-c1ccccc1)c1n2C2(C(=O)c3ccccc3C2=O)C2C(=O)N(c3ccccc3)C(=O)C12 (centres undefined)")
"NO"
>>> category_label("ClC(Cl)=C1C(=C(Cl)Cl)C(Cl)(Cl)C1(Cl)Cl")
"NO"
>>> category_label("S=C1N=C(Cl)/C(=C\\c2ccco2)N1")
"NO"
>>> category_label("COc1ccc(/C=C(\\Cl)c2ccc(OC)c(OC)c2)cc1OC")
"NO"
>>> category_label("CC(C)CNC(=O)c1c(NC(=O)c2ccccc2)sc2[nH]c(=O)n(-c3ccccc3)c(=O)c12")
"NO"
>>> category_label("O=S(=O)(c1ccccc1)N1N=C2c3ccccc3CCC[C@H]2C1c1ccccc1 (some centres undefined)")
"NO"
>>> category_label("O=[N+]([O-])c1ccc(-n2nc3ccc4c(no[n+]4[O-])c3[n+]2[O-])c([N+](=O)[O-])c1")
"NO"
>>> category_label("COc1cccc(N2C(=O)/C(=C/c3ccc(N(CCC#N)CCC#N)cc3)N=C2c2cc([N+](=O)[O-])ccc2Cl)c1")
"NO"
>>> category_label("O=C(Nc1nnc(-c2ccccc2)o1)C(SC(=S)N1CCOCC1)c1ccccc1 (centres undefined)")
"NO"
>>> category_label("O=c1[nH]nc(N/N=C\\c2ccc(Cl)cc2)c2ccccc12")
"NO"
>>> category_label("COC(=O)c1cc(-c2ccc3ccccc3c2)nc(O)c1C#N")
"NO"
>>> category_label("CC1CCC2(O)C3(C)CC4(O)OC2(C1O)C1(O)C3(O)C(OC(=O)c2ccc[nH]2)C(O)(C(C)C)C41C (centres undefined)")
"NO"

* * *

# Test system: SK-MEL-5
# EXPERIMENT DESCRIPTION: NCI tumour cell line growth inhibition, 48 h
Calls of active or inactive are those of the source. Cut-off read from the data, not from the text of the source: active = GI50 up to about 1.1 µM and inactive = higher.
PROPERTY MEASURED: GI50

>>> observed("C/C1=C\\CC[C@@]2(C)O[C@@H]2C[C@@H]2[C@H](C/C(C)=C/CC1)OC(=O)[C@]21CO1")
"> 100 µM (inactive)"
>>> observed("CCc1ccccc1NC(=O)CCc1nnc(S)[nH]1")
"> 100 µM (inactive)"
>>> observed("CCc1ccc(Cc2ccc(CC)c(NC(=O)C(=O)C3NC(=S)NC3=O)c2CC)c(CC)c1NC(=O)C(=O)C1NC(=S)NC1=O (stereo not given)")
"> 100 µM (inactive)"
>>> observed("CCOC(=O)CCc1c(C)c2ccc(O)cc2oc1=O")
"> 100 µM (inactive)"
>>> observed("CC(=O)CC(=O)Nc1ccccc1C(F)(F)F")
"> 100 µM (inactive)"
>>> observed("CC1=CCCC(OC(N)=O)C1 (stereo not given)")
"> 100 µM (inactive)"
>>> observed("CCCS(=O)(=O)Nc1ccc(Nc2c3ccccc3nc3ccccc23)c(OC)c1")
"2 µM (inactive)"
>>> observed("CC(C)(C)[Si](C)(C)OC[C@H](/C=C\\CCCC(=O)O)NC1(c2ccccc2)c2ccccc2-c2ccccc21")
"11.2 µM (inactive)"
>>> observed("COc1ccc(/C=C(\\Cl)c2ccc(OC)c(OC)c2)cc1OC")
"> 100 µM (inactive)"
>>> observed("O=S(=O)(c1cccc(C(F)(F)F)c1)N1c2ccccc2-n2cccc2C1c1cccnc1 (stereo not given)")
"8.09 µM (inactive)"
>>> observed("Cc1ccc(C(=O)/C=C2/Nc3ccc([N+](=O)[O-])cc3N/C2=C/C(=O)c2ccc(C)cc2)cc1")
"> 100 µM (inactive)"
>>> observed("Cc1cc2[nH]c3c(C#N)c(-c4ccccc4)c(/C=N/c4ccc(Cl)cc4)c(=O)n3c2cc1C")
"> 100 µM (inactive)"
>>> observed("CCOC(=O)c1cnc2oc(/C=N/N3CC(CN4CCOCC4)OC3=O)cc2c1O (stereo not given)")
"> 100 µM (inactive)"
>>> observed("CCOC(=O)/C(=C\\c1ccc(CO)o1)P(=O)(OCC)OCC")
"> 100 µM (inactive)"
>>> observed("CN(C)c1ccc(/N=N\\c2cccc3ccoc23)cc1")
"43.4 µM (inactive)"
>>> observed("COc1ccccc1-c1cc(=O)c2cc(C)c(C)c(C(=O)O)c2o1")
"> 100 µM (inactive)"
>>> observed("O=S(=O)(c1ccccc1)N1N=C2c3ccccc3CCC[C@H]2C1c1ccccc1 (stereo not given in full)")
"> 100 µM (inactive)"
>>> observed("CC(=O)OC[C@@]12CC[C@H]3C(C)(C)CCC[C@]3(C)[C@H]1C[C@@H](C1=CC(=O)O[C@H]1O)O2")
"2.8 µM (inactive)"
>>> observed("Cn1c(COC(=O)NC2CCCCC2)c(COC(=O)NC2CCCCC2)c2ccc3cc(C=O)ccc3c21")
"> 100 µM (inactive)"
>>> observed("COC(=O)/C=C1\\C(CO[Si](C)(C)C(C)(C)C)OC(n2ccc(=O)[nH]c2=O)C1O (stereo not given)")
"6.28 µM (inactive)"

* * *

# Test system: UACC-257
# EXPERIMENT DESCRIPTION: NCI tumour cell line growth inhibition, 48 h
Calls of active or inactive are those of the source. Rule as the data show it: active = GI50 up to about 1.1 µM and inactive = higher.
The entries below are paired with their reported GI50.
PROPERTY MEASURED: GI50

>>> observed("O=S(=O)(O)c1cc(S(=O)(=O)O)c2cc(/N=N/c3c(O)ccc4ccccc34)ccc2c1")
"> 100 µM (inactive)"
>>> observed("O=C(O)c1ccc(N2C=[N+]3C(=Nc4ccccc43)C2)cc1")
"> 100 µM (inactive)"
>>> observed("C/C(=N\\NC(=S)N(C)C)c1ncc[nH]1")
"2.92 µM (inactive)"
>>> observed("O=C(Nc1nnc(-c2ccccc2)o1)C(SC(=S)N1CCOCC1)c1ccccc1 (stereo unspecified)")
"35.6 µM (inactive)"
>>> observed("[O-][N+]1=[N+]([O-])[C@@H](c2ccccc2)[C@H]1c1ccccc1")
"13.1 µM (inactive)"
>>> observed("CCCC1(N)CC(OC)OC(C)C1O (stereo unspecified)")
"> 100 µM (inactive)"
>>> observed("N#Cc1cnn2c1n[n+]([O-])c1ccc(Cl)cc12")
"9.35 µM (inactive)"
>>> observed("O=C(/C=C1/Nc2ccc([N+](=O)[O-])cc2N/C1=C/C(=O)c1ccc(Cl)cc1)c1ccccc1")
"> 100 µM (inactive)"
>>> observed("CS(=O)(=O)c1ccc(-c2cc(-c3ccc(S(C)(=O)=O)cc3)[n+](-c3cc(-c4ccc(S(C)(=O)=O)cc4)c([O-])c(-c4ccc(S(C)(=O)=O)cc4)c3)c(-c3ccc(S(C)(=O)=O)cc3)c2)cc1")
"56.5 µM (inactive)"
>>> observed("O=C(CCc1ccc(O)c(O)c1)NCCc1cc(OCc2ccccc2)cc(OCc2ccccc2)c1")
"28.1 µM (inactive)"
>>> observed("Cc1cc2nc(N3C(=O)/C(=C/c4cccc([N+](=O)[O-])c4)N=C3c3ccccc3)sc2cc1C")
"42.6 µM (inactive)"
>>> observed("CCn1cc(C(=O)O)c(=O)c2cc(F)c(N3CCNCC3)nc21 [ENOXACIN]")
"> 100 µM (inactive)"
>>> observed("COc1cc2c(cc1Cc1c(F)cccc1Cl)nc(-c1c(F)cccc1Cl)n2Cc1c(F)cccc1Cl")
"22.5 µM (inactive)"
>>> observed("COC1CN(C)/C(=N\\c2cccc3ccccc23)S1 (stereo unspecified)")
"> 10 µM (inactive)"
>>> observed("CCCc1c[nH]c(-c2ccc(-c3cc(CCC)c(C=O)[nH]3)s2)c1")
"17.3 µM (inactive)"
>>> observed("COc1ccccc1/[N+]([O-])=C/c1ccccc1OC(=S)S")
"28.1 µM (inactive)"
>>> observed("CC(C)CNC(=O)c1c(NC(=O)c2ccccc2)sc2[nH]c(=O)n(-c3ccccc3)c(=O)c12")
"> 100 µM (inactive)"
>>> observed("CC(=O)n1[nH]c(=O)n(-c2ccccc2)c1=O")
"> 100 µM (inactive)"
>>> observed("Cc1ccc(S(=O)(=O)n2cc(C#N)c(C#N)c2)cc1")
"29.2 µM (inactive)"
>>> observed("CSc1scc2c1/C(=N/NC(N)=O)CCC2")
"> 100 µM (inactive)"
>>> observed("O=C1C2=C(c3ccccc31)C(c1ccccc1)N1C(=O)CSC1=N2 (stereo unspecified)")
"> 86.5 µM (inactive)"
